test system: human HL-60 cells; experiment: superoxide O2- secretion from PMA-stimulated HL-60 cells (cytochrome C reduction); format: cell-based; conditions: 0.25 h, 30 nM PMA-stimulated HL-60 cells, 15 min at 37° C.
measured.quantity: IC50

Reported IC50, compound CC(C)=NN=C(N)N : ____
310 µM

###

target: inducible NOS (Mus musculus, UniProt P29477); construct: using an enzyme isolated from LPS-+INFγ-treated mouse macrophages; endogenous in cells; assay: inducible NOS activity assay (formation of nitrite from arginine, Griess reagent); details: enzyme isolated from LPS-+INFγ-treated mouse macrophages; 180 min at 37° C.; 0.1 mM L-arginine
measured.quantity: pIC50
Numbers only, as −log10 of the molar value.

Reported pIC50, molecule CC(C)=NN=C(N)N : ____
4.43
